- measurement protocol: Cytotoxicity against human BE(2)-C cells assessed as cell viability at 25 uM after 24 hrs by MTT assay relative to control
- Assay type: cell-based
- test conditions: read-out: Activity
reported property: viability at 24 h, 25 µM (%)

O=C(NCCc1ccncc1)C1CCN(C(=O)c2cc3ccncc3n2Cc2ccc(Cl)cc2)CC1 ... 66.1
O=C(NCCc1ccncc1)C1CCN(C(=O)c2cc3ccccc3n2Cc2ccccc2)CC1 ... 79.4
O=C(NCCn1ccnc1)C1CCN(C(=O)c2cc3ccccc3n2Cc2ccc(Cl)cc2)CC1 ... 70.3

###

- measurement protocol: Plasma concentration in C57BL/6 mouse at 30 mg/kg, ip after 12 hrs
- Type: ADME, organism-based
- Design: dose 30 mg/kg, route intraperitoneal
- test conditions: C57BL/6, mouse, plasma
reported property: concentration at 12 h (ng/mL)

O=C(NCCc1ccncc1)C1CCN(C(=O)c2cc3ccccc3n2Cc2ccc(Cl)cc2)CC1 ... 23

###

- measurement protocol: Kinetic solubility of the compound
- Assay type: physicochemical
reported property: log10 of Kinetic_solubility (log10 of the value in µM)

O=C(NCCc1ccncc1)C1CCN(C(=O)c2cc3ccccc3n2Cc2ccc(Cl)cc2)CC1 ... 1.49
C[C@@H](NC(=O)C1CCN(C(=O)c2cc3ccccc3n2Cc2ccc(Cl)cc2)CC1)c1ccccc1 ... 0.90
O=C(NCc1ccncc1)C1CCN(C(=O)c2cc3ccccc3n2Cc2ccc(Cl)cc2)CC1 ... 1.49
O=C(NCCc1ccncc1)C1CCN(C(=O)c2cccn2Cc2ccc(Cl)cc2)CC1 ... 2.10
O=C(NCCc1ccncc1)C1CCN(C(=O)c2nc3ccccc3n2Cc2ccc(Cl)cc2)CC1 ... 1.80
O=C(NCCn1ccnc1)C1CCN(C(=O)c2cc3ccccc3n2Cc2ccc(Cl)cc2)CC1 ... 1.49
CN(C)C(=O)C1CCN(C(=O)c2cc3ccccc3n2Cc2ccc(Cl)cc2)CC1 ... 1.79
O=C(NCCc1ccncc1)C1CCN(C(=O)c2cc3cc(F)ccc3n2Cc2ccc(Cl)cc2)CC1 ... 1.49
O=C(NCCc1ccncc1)C1CCN(C(=O)NCCc2ccc(Cl)cc2)CC1 ... 2.40
CC(NC(=O)C1CCN(C(=O)c2cc3ccccc3n2Cc2ccc(Cl)cc2)CC1)c1ccncc1 (racemic) ... 1.49
O=C(NCCc1ccncc1)C1CCN(C(=O)c2cc(F)cn2Cc2ccc(Cl)cc2)CC1 ... 2.10
O=C(NCCCc1ccncc1)C1CCN(C(=O)c2cc3ccccc3n2Cc2ccc(Cl)cc2)CC1 ... 1.20
O=C(NCCc1ccncc1)C1CCN(C(=O)c2cc3ccccc3n2Cc2ccccc2)CC1 ... 1.49
O=C(NCCc1ccncc1)C1CCN(C(=O)c2cc3ccncc3n2Cc2ccc(Cl)cc2)CC1 ... 2.10

###

- measurement protocol: Kinetic solubility of the compound
- Format: physicochemical
- test conditions: read-out: Kinetic_solubility
reported property: solubility kinetic

O=C(NCCc1ccncc1)C1CCN(C(=O)c2nccn2Cc2ccc(Cl)cc2)CC1 ... > 500 µM

###

- target of assay: MDR1 (ABCB1, P-glycoprotein) (Homo sapiens, UniProt P08183)
- Sequence (P08183 whole entry): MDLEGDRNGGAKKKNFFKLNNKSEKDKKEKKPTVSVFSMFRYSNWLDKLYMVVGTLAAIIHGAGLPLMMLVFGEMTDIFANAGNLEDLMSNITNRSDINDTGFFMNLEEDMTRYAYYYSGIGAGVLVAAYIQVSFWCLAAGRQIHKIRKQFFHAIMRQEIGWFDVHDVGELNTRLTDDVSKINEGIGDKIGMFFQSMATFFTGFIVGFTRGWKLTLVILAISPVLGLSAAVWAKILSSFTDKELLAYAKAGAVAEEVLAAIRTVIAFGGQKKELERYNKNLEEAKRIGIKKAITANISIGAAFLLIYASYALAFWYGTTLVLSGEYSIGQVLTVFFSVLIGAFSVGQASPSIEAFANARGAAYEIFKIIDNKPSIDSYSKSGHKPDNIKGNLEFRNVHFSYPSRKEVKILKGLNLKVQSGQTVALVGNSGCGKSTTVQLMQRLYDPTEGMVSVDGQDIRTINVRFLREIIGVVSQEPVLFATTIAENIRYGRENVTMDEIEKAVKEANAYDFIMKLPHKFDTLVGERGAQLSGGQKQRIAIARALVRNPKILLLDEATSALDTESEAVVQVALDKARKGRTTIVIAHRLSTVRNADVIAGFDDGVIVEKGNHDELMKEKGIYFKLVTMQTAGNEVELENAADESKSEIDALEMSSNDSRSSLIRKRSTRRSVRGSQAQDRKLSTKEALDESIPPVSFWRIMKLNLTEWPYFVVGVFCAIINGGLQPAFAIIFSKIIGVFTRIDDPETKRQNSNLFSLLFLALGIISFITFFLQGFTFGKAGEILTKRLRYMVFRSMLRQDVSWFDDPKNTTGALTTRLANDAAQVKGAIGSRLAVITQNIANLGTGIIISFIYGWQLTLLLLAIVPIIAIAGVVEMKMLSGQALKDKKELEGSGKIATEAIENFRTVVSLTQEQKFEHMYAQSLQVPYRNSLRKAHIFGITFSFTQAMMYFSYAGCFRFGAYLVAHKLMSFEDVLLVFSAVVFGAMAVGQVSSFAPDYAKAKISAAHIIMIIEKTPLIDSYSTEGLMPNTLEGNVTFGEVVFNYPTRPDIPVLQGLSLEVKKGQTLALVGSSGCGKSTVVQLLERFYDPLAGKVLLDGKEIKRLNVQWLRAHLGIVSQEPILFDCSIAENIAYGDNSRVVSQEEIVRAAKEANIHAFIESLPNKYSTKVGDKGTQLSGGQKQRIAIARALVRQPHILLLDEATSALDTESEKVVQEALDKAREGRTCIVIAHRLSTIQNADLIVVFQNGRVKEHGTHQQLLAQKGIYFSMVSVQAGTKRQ
- measurement protocol: Inhibition of human MDR1 expressed in MDCK2 cells assessed as increase of rhodamine 123 uptake at 30 uM up to 240 mins relative to control
- Type: ADME, cell-based, MDCK-II
- test conditions: MDCK2 cells expressing human MDR1, probe rhodamine 123
Rule: inhibition at 4 h, 30 µM of 20% or more gives yes (1); anything lower gives no (0).

O=C(NCCc1ccncc1)C1CCN(C(=O)c2nccn2Cc2ccc(Cl)cc2)CC1 ... no (0)
CN(CCc1ccncc1)C(=O)C1CCN(C(=O)c2cc3ccccc3n2Cc2ccc(Cl)cc2)CC1 ... yes (1)
CC(CNC(=O)C1CCN(C(=O)c2cc3ccccc3n2Cc2ccc(Cl)cc2)CC1)c1ccncc1 (stereo unspecified) ... yes (1)
CN(C)C(=O)C1CCN(C(=O)c2cc3ccccc3n2Cc2ccc(Cl)cc2)CC1 ... yes (1)
O=C(NCCc1ccncc1)C1CCN(C(=O)c2cc3ccncc3n2Cc2ccc(Cl)cc2)CC1 ... no (0)
O=C(NCCc1ccncc1)C1CCN(C(=O)c2cc3ccccc3n2Cc2ccccc2)CC1 ... no (0)
O=C(NCC1COc2cnccc21)C1CCN(C(=O)c2cc3ccccc3n2Cc2ccc(Cl)cc2)CC1 (stereo unspecified) ... yes (1)
O=C(NCCc1ccncc1)C1CCN(C(=O)c2nc3ccccc3n2Cc2ccc(Cl)cc2)CC1 ... no (0)
O=C(NCc1ccncc1)C1CCN(C(=O)c2cc3ccccc3n2Cc2ccc(Cl)cc2)CC1 ... yes (1)
CC(NC(=O)C1CCN(C(=O)c2cc3ccccc3n2Cc2ccc(Cl)cc2)CC1)c1ccncc1 (racemic) ... yes (1)
O=C(NCCc1ccncc1)C1CCN(C(=O)c2cc3ccc(F)cc3n2Cc2ccc(Cl)cc2)CC1 ... yes (1)
O=C(NCCc1ccncc1)C1CCN(C(=O)c2cccn2Cc2ccc(Cl)cc2)CC1 ... no (0)
C[C@@H](NC(=O)C1CCN(C(=O)c2cc3ccccc3n2Cc2ccc(Cl)cc2)CC1)c1ccccc1 ... yes (1)
O=C(NCCn1ccnc1)C1CCN(C(=O)c2cc3ccccc3n2Cc2ccc(Cl)cc2)CC1 ... no (0)
O=C(NCCCc1ccncc1)C1CCN(C(=O)c2cc3ccccc3n2Cc2ccc(Cl)cc2)CC1 ... yes (1)
O=C(NCCc1ccncc1)C1CCN(C(=O)c2cc3cc(F)ccc3n2Cc2ccc(Cl)cc2)CC1 ... yes (1)
O=C(NCCc1cccnc1)C1CCN(C(=O)c2cc3ccccc3n2Cc2ccc(Cl)cc2)CC1 ... yes (1)
O=C(NCCc1ccncc1)C1CCN(C(=O)c2cc3ccccc3n2Cc2c(F)cccc2F)CC1 ... yes (1)
C[C@@H](NC(=O)C1CCN(C(=O)c2cc3ccccc3n2Cc2ccc(Cl)cc2)CC1)c1ccncc1 ... yes (1)
O=C(NCCc1ccccn1)C1CCN(C(=O)c2cc3ccccc3n2Cc2ccc(Cl)cc2)CC1 ... yes (1)
O=C(NCCc1ccncc1)C1CCN(C(=O)c2cc3ccccc3n2Cc2ccc(Cl)cc2)CC1 ... yes (1)

###

- measurement protocol: Plasma concentration in C57BL/6 mouse at 20 mg/kg, ip after 2 hrs
- Type: ADME, organism-based
- Design: dose 20 mg/kg, route intraperitoneal
reported property: concentration at 2 h (ng/mL)

O=C(NCCc1ccncc1)C1CCN(C(=O)c2cccn2Cc2ccc(Cl)cc2)CC1 ... 5

###

- measurement protocol: Cytotoxicity against human BE(2)-C cells assessed as cell viability at 25 uM after 24 hrs by MTT assay relative to control
- Assay type: cell-based
- test conditions: read-out: Activity
The following molecules are listed with their measured viability at 24 h, 25 µM values.
reported property: viability at 24 h, 25 µM (%)

C[C@@H](NC(=O)C1CCN(C(=O)c2cc3ccccc3n2Cc2ccc(Cl)cc2)CC1)c1ccncc1 ... 65.5
O=C(NCCc1ccncc1)C1CCN(C(=O)c2cc3ccc(F)cc3n2Cc2ccc(Cl)cc2)CC1 ... 69.2
O=C(NCCc1ccncc1)C1CCN(C(=O)c2cc3ccccc3n2Cc2ccc(Cl)cc2)CC1 ... 60.7
NC(=O)c1ncn([C@@H]2O[C@H](CO)[C@@H](O)[C@H]2O)n1 ... 32.6
C[C@@H](NC(=O)C1CCN(C(=O)c2cc3ccccc3n2Cc2ccc(Cl)cc2)CC1)c1ccccc1 ... 36.7
O=C(NCCc1ccncc1)C1CCN(C(=O)c2nc3ccccc3n2Cc2ccc(Cl)cc2)CC1 ... 69.7
CC(CNC(=O)C1CCN(C(=O)c2cc3ccccc3n2Cc2ccc(Cl)cc2)CC1)c1ccncc1 (centres undefined) ... 74
CC(NC(=O)C1CCN(C(=O)c2cc3ccccc3n2Cc2ccc(Cl)cc2)CC1)c1ccncc1 (racemic) ... 63.2
O=C(NCCc1ccncc1)C1CCN(C(=O)c2cccn2Cc2ccc(Cl)cc2)CC1 ... 59.1

###

- measurement protocol: Plasma concentration in C57BL/6 mouse at 30 mg/kg, ip after 30 mins
- Assay type: ADME, organism-based
- Design: dose 30 mg/kg, route intraperitoneal
The following compounds are listed with their measured concentration at 0.5 h values.
reported property: concentration at 0.5 h (ng/mL)

O=C(NCCc1ccncc1)C1CCN(C(=O)c2cc3ccccc3n2Cc2ccc(Cl)cc2)CC1 ... 59
C[C@@H](NC(=O)C1CCN(C(=O)c2cc3ccccc3n2Cc2ccc(Cl)cc2)CC1)c1ccccc1 ... 10

###

- measurement protocol: Cytotoxicity against human BE(2)-C cells after 18 to 20 hrs by MTT assay
- Assay type: cell-based
- test conditions: be(2)-c
reported property: CC50 (µM)

O=C(NCCn1ccnc1)C1CCN(C(=O)c2cc3ccccc3n2Cc2ccc(Cl)cc2)CC1 ... 99.6
C[C@@H](NC(=O)C1CCN(C(=O)c2cc3ccccc3n2Cc2ccc(Cl)cc2)CC1)c1ccncc1 ... 92.3
COc1ccc(Cn2c(C(=O)N3CCC(C(=O)N(C)Cc4ccccc4)CC3)cc3ccccc32)cc1 ... 99.2
CN(Cc1ccccc1)C(=O)C1CCN(C(=O)c2cc3ccccc3n2Cc2ccc(C(F)(F)F)cc2)CC1 ... 90.3
O=C(NCCc1ccncc1)C1CCN(C(=O)c2cc3ccccc3n2Cc2ccccc2)CC1 ... 45.6
O=C(NCCCc1ccncc1)C1CCN(C(=O)c2cc3ccccc3n2Cc2ccc(Cl)cc2)CC1 ... 71.5
O=C(NCCc1ccncc1)C1CCN(C(=O)c2cc3cc(F)ccc3n2Cc2ccc(Cl)cc2)CC1 ... 52.5
O=C(c1cc2ccccc2n1Cc1ccc(Cl)cc1)N1CCC(C(=O)N2CCCC2)CC1 ... 65.6
CC(CNC(=O)C1CCN(C(=O)c2cc3ccccc3n2Cc2ccc(Cl)cc2)CC1)c1ccncc1 (stereo not drawn) ... 98.2
O=C(NCCc1ccncc1)C1CCN(C(=O)c2cc3ccccc3n2Cc2c(F)cccc2F)CC1 ... 34.5
O=C(c1cc2ccccc2n1Cc1ccc(Cl)cc1)N1CCC(C(=O)N2CCC[C@H]2CO)CC1 ... 98.9
O=C(NCCc1ccncc1)C1CCN(C(=O)c2cc3ccncc3n2Cc2ccc(Cl)cc2)CC1 ... 77.1
CN(CCc1ccncc1)C(=O)C1CCN(C(=O)c2cc3ccccc3n2Cc2ccc(Cl)cc2)CC1 ... 47.9
O=C(NCCc1ccc(Cl)cc1)C1CCN(C(=O)c2cc3ccccc3n2Cc2ccc(Cl)cc2)CC1 ... 40.4
CC(C)c1ccc(CCNC(=O)C2CCN(C(=O)c3cc4ccccc4n3Cc3ccc(Cl)cc3)CC2)cc1 ... 27.2
O=C(NCCc1ccc(F)cc1)C1CCN(C(=O)c2cc3ccccc3n2Cc2ccc(Cl)cc2)CC1 ... 18.6
CC(C)Cn1c(C(=O)N2CCC(C(=O)N(C)Cc3ccccc3)CC2)cc2ccccc21 ... 58.2
O=C(NCCc1ccncc1)C1CCN(C(=O)c2cc3ccccc3n2Cc2ccc(Cl)cc2)CC1 ... 49.9
